Target: UniProtKB P41595
Sequence (P41595 whole entry): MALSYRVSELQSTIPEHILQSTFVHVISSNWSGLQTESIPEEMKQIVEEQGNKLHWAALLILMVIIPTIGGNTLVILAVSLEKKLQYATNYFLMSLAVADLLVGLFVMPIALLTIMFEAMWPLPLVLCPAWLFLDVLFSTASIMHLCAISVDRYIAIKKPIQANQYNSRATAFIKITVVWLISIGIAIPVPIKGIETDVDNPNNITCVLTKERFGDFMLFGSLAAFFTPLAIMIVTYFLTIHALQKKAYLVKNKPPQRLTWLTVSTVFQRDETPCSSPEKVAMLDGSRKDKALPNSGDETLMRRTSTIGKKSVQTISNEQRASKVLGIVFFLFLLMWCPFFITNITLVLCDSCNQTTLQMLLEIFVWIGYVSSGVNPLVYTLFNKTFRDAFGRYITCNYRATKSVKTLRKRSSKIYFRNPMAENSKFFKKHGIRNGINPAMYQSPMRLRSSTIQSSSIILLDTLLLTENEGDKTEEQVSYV
Assay: competitive radioligand binding, Serotoninergic 5-HT2B
Conditions: read-out: radio-labelled ligand displacement, Serotoninergic 5-HT2B
Where a name gives a salt, the structure may show the parent alone.

[
  {
    "molecule": "Cc1cc2c3c(n(CCc4ccccc4)c2s1)CCN(C)C3.Cl [3.6(1)•HCl]",
    "units.of.measure": "%",
    "inhibition at 1 µM": 92
  },
  {
    "molecule": "Cc1cc2c3c(n(Cc4ccccc4)c2s1)CCN(C)C3.Cl [3.5(1)•HCl]",
    "units.of.measure": "%",
    "inhibition at 1 µM": 90
  },
  {
    "molecule": "Cc1cc2c3c(n(Cc4ccccc4)c2s1)CC1CCC3N1C (centres unmarked) [3.13(1)•HCl]",
    "units.of.measure": "%",
    "inhibition at 1 µM": 90
  },
  {
    "molecule": "Cc1cc2c(s1)c1c(n2CCc2ccccc2)CCN(C)C1.Cl [2.6(1)•HCl]",
    "units.of.measure": "%",
    "inhibition at 1 µM": 79
  },
  {
    "molecule": "Cc1cc2c(s1)c1c(n2Cc2ccccc2)CCN(C)C1.Cl [2.5(1)•HCl]",
    "units.of.measure": "%",
    "inhibition at 1 µM": 91
  }
]

====

Entries and their measured inhibition at 1 µM follow.
Molecular target: Dopaminergic D4.2 (Homo sapiens, UniProt P21917, DEL265-296)
Sequence (P21917 with tags, fused parts or gaps DEL265-296): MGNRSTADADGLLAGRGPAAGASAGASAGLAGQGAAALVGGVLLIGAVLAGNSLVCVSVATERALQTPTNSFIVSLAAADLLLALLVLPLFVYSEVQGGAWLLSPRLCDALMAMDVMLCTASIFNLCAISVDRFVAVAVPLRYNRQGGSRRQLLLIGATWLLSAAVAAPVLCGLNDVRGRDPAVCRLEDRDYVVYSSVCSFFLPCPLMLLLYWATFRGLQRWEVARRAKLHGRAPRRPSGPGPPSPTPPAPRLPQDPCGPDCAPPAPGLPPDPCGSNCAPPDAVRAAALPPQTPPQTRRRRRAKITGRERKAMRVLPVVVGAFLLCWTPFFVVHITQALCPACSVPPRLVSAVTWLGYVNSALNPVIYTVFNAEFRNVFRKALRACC
Assay: competitive radioligand binding, Dopaminergic D4.2
Conditions: compound concentration of 1 μM; read-out: radio-labelled ligand displacement, Dopaminergic D4.2
Where a name gives a salt, the structure may show the parent alone.
measured.parameter: inhibition at 1 µM (%)

[
  {
    "compound": "Cc1ccc(CCCn2c3c(c4scc(Cl)c42)CN(C)CC3)cn1 [2.12(5)•HCl]",
    "number": 69
  },
  {
    "compound": "Cc1cc2c(s1)c1c(n2Cc2ccccc2)CCN(C)C1.Cl [2.5(1)•HCl]",
    "number": -3
  },
  {
    "compound": "Cc1cc2c3c(n(CCc4ccccc4)c2s1)CCN(C)C3.Cl [3.6(1)•HCl]",
    "number": 71
  },
  {
    "compound": "Cc1ccc(Cn2c3c(c4sc(Cl)cc42)C(C)N(C)C(C)C3)cn1 (stereo not drawn) [2.5(4)•HCl]",
    "number": -1
  },
  {
    "compound": "Cc1cc2c3c(n(Cc4ccccc4)c2s1)CCN(C)C3.Cl [3.5(1)•HCl]",
    "number": -5
  },
  {
    "compound": "Cc1cc2c3c(n(Cc4ccccc4)c2s1)CC1CCC3N1C (stereo not drawn) [3.13(1)•HCl]",
    "number": 31
  },
  {
    "compound": "Cc1cc2c(s1)c1c(n2-c2cccc(F)c2)CCN(C)C1 [2.4(3)•HCl]",
    "number": 3
  },
  {
    "compound": "Cc1cc2c(s1)c1c(n2CCc2ccccc2)CCN(C)C1.Cl [2.6(1)•HCl]",
    "number": 14
  },
  {
    "compound": "CC1Cc2c(c3sc(Cl)cc3n2C#Cc2cccc(F)c2)C(C)N1C (stereo not drawn) [2.10(3)•HCl]",
    "number": 4
  }
]

====

Target: UniProtKB P08913
Sequence (P08913 whole entry): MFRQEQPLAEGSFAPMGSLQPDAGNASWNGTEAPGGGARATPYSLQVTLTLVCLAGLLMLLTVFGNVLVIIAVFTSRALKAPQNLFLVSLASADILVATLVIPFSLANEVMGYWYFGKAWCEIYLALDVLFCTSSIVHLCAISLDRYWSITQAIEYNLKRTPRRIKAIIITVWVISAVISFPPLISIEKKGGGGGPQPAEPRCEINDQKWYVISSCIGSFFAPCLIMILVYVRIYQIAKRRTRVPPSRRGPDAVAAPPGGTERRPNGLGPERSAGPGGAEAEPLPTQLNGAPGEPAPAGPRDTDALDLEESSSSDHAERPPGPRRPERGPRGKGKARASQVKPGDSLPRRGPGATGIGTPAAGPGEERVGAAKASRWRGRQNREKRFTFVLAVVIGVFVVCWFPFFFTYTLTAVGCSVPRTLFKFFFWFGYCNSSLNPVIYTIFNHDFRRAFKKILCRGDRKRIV
Assay: competitive radioligand binding, Adrenergic α2A
Conditions: compound concentration of 1 μM
Procedure: Profiles of pharmacological activity of thieno-pyrrolo[3,2-c]pyridines of the general formula 1. […] The tested activity was determined by quantitative measurement of radio-labelled ligand displacement by tested compounds of the general formula 1 at their concentration of 1 μM.
Counter-ions that a name gives are not always drawn.
measured.parameter: radio-labelled ligand displacement, Adrenergic α2A (%)

[
  {
    "compound": "Cc1ccc(CCCn2c3c(c4c(Cl)csc42)CN(C)CC3)cc1 [3.12(5)•HCl]",
    "units.of.measure": "%",
    "number": 91
  },
  {
    "compound": "CN1CCc2c(c3cc(Cl)sc3n2CCCc2cccc(F)c2)C1 [3.12(6)•HCl]",
    "units.of.measure": "%",
    "number": 91
  },
  {
    "compound": "Cc1csc2c1c1c(n2CCCc2ccccc2)CCN(C)C1 [3.12(1)•HCl]",
    "units.of.measure": "%",
    "number": 101
  },
  {
    "compound": "Cc1ccc(C=CCn2c3c(c4cc(C)sc42)CN(C)CC3)cc1 [3.11(2)•HCl]",
    "units.of.measure": "%",
    "number": 53
  },
  {
    "compound": "Cc1cc2c3c(n(CC(O)c4ccccc4)c2s1)CCN(C)C3.Cl (stereo not drawn) [3.7(1)•HCl]",
    "units.of.measure": "%",
    "number": 91
  },
  {
    "compound": "Cc1cc2c3c(n(CCc4ccc(Cl)cc4)c2s1)C(C)CN(C)C3 (stereo not drawn) [3.6(4)•HCl]",
    "units.of.measure": "%",
    "number": 93
  }
]

====

Molecular target: UniProt:P35462
Sequence (P35462 whole entry): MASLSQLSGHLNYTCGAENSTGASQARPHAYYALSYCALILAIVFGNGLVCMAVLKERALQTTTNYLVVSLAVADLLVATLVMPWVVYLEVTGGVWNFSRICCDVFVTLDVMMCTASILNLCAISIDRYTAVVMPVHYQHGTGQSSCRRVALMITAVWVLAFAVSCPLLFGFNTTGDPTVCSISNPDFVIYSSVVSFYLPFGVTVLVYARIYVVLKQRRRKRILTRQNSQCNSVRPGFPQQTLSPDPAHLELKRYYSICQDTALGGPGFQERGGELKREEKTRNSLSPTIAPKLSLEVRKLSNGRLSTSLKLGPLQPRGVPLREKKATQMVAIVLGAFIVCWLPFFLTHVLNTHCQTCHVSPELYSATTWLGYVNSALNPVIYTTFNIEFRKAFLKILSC
Assay: competitive radioligand binding, Dopaminergic D3
Settings: compound concentration of 1 μM
Where a name gives a salt, the structure may show the parent alone.
// false strictly below 70% in radio-labelled ligand displacement, Dopaminergic D3; true otherwise

[
  {
    "compound": "Cc1cc2c3c(n(CCc4ccc(Cl)cc4)c2s1)C(C)CN(C)C3 (stereo not drawn) [3.6(4)•HCl]",
    "assigned.category": "false"
  },
  {
    "compound": "Cc1cc2c3c(n(CC(O)c4ccccc4)c2s1)CCN(C)C3.Cl (stereo not drawn) [3.7(1)•HCl]",
    "assigned.category": "false"
  },
  {
    "compound": "Cc1csc2c1c1c(n2CCCc2ccccc2)CCN(C)C1 [3.12(1)•HCl]",
    "assigned.category": "true"
  },
  {
    "compound": "Cc1ccc(C=CCn2c3c(c4cc(C)sc42)CN(C)CC3)cc1 [3.11(2)•HCl]",
    "assigned.category": "false"
  },
  {
    "compound": "Cc1ccc(CCCn2c3c(c4c(Cl)csc42)CN(C)CC3)cc1 [3.12(5)•HCl]",
    "assigned.category": "false"
  }
]

====

inhibition at 1 µM for assorted compounds
Biological target: Histaminergic H3 (Homo sapiens)
Sequence (Q9Y5N1 whole entry): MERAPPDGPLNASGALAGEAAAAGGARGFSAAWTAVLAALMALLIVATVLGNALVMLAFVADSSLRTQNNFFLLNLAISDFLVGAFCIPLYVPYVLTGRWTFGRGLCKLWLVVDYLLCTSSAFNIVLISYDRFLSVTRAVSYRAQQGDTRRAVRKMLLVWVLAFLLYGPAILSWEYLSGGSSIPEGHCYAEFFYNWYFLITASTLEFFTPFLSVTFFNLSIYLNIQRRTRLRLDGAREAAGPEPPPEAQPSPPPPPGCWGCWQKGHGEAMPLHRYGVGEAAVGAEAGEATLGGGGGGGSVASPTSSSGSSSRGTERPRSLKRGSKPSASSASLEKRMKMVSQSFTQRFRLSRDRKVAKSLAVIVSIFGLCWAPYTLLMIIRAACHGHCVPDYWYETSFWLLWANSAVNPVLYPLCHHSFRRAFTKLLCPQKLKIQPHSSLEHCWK
Assay: competitive radioligand binding, Histaminergic H3
Conditions: compound concentration of 1 μM; read-out: radio-labelled ligand displacement, Histaminergic H3
Where a name gives a salt, the structure may show the parent alone.

[
  {
    "compound": "Cc1cc2c(s1)c1c(n2-c2cccc(F)c2)CCN(C)C1 [2.4(3)•HCl]",
    "target.entity": "Histaminergic H3 (Homo sapiens)",
    "inhibition at 1 µM [%]": 1
  },
  {
    "compound": "Cc1cc2c(s1)c1c(n2Cc2ccccc2)CCN(C)C1.Cl [2.5(1)•HCl]",
    "target.entity": "Histaminergic H3 (Homo sapiens)",
    "inhibition at 1 µM [%]": -4
  },
  {
    "compound": "Cc1cc2c3c(n(CCc4ccccc4)c2s1)CCN(C)C3.Cl [3.6(1)•HCl]",
    "target.entity": "Histaminergic H3 (Homo sapiens)",
    "inhibition at 1 µM [%]": -17
  },
  {
    "compound": "Cc1ccc(CCCn2c3c(c4scc(Cl)c42)CN(C)CC3)cn1 [2.12(5)•HCl]",
    "target.entity": "Histaminergic H3 (Homo sapiens)",
    "inhibition at 1 µM [%]": 12
  },
  {
    "compound": "Cc1ccc(Cn2c3c(c4sc(Cl)cc42)C(C)N(C)C(C)C3)cn1 (stereo not drawn) [2.5(4)•HCl]",
    "target.entity": "Histaminergic H3 (Homo sapiens)",
    "inhibition at 1 µM [%]": 9
  },
  {
    "compound": "Cc1cc2c(s1)c1c(n2CCc2ccccc2)CCN(C)C1.Cl [2.6(1)•HCl]",
    "target.entity": "Histaminergic H3 (Homo sapiens)",
    "inhibition at 1 µM [%]": -15
  },
  {
    "compound": "Cc1cc2c3c(n(Cc4ccccc4)c2s1)CC1CCC3N1C (stereo not drawn) [3.13(1)•HCl]",
    "target.entity": "Histaminergic H3 (Homo sapiens)",
    "inhibition at 1 µM [%]": 12
  },
  {
    "compound": "CC1Cc2c(c3sc(Cl)cc3n2C#Cc2cccc(F)c2)C(C)N1C (stereo not drawn) [2.10(3)•HCl]",
    "target.entity": "Histaminergic H3 (Homo sapiens)",
    "inhibition at 1 µM [%]": -10
  },
  {
    "compound": "Cc1cc2c3c(n(Cc4ccccc4)c2s1)CCN(C)C3.Cl [3.5(1)•HCl]",
    "target.entity": "Histaminergic H3 (Homo sapiens)",
    "inhibition at 1 µM [%]": 18
  }
]
